Assay: PK of single agents vs fixed dose combinations (FDC), single oral dose in healthy volunteers
Type: in vivo, human
Conditions: human, in vivo, Arm 3: FDC04; read-out: AUC∞ (mean ± SD)

compound	AUC(0-inf) (ng·h/mL)
CC(C)OC(=O)[C@H](C)N[P@](=O)(OC[C@@]1(F)O[C@@H](n2ccc(=O)[nH]c2=O)[C@](C)(O)[C@@H]1O)Oc1ccccc1 [Compound (III)]	1580

###

Experiment: PK of single agents vs fixed dose combinations (FDC), single oral dose in healthy volunteers
Type: in vivo, human
Details: human, plasma, oral, Arm 3: FDC04; read-out: AUClast (mean ± SD)
property-measured: AUC(0-t)

compound	result
COc1ccc2c(O[C@@H]3C[C@H]4C(=O)N[C@]5(C(=O)NS(=O)(=O)C6CC6)C[C@H]5/C=C\CCCCN(C)C(=O)[C@@H]4C3)cc(-c3nc(C(C)C)cs3)nc2c1C [SMV, Simeprevir, reference compound]	12900 ng·h/mL
C[C@]1(O)[C@H](n2ccc(=O)[nH]c2=O)O[C@](F)(CO)[C@H]1O [Compound A-1]	4710 ng·h/mL
COC(=O)N[C@H](C(=O)N1[C@H](c2nc3cc(-c4cc5ccc4CCc4ccc(c(-c6ccc7[nH]c([C@@H]8C[C@@H]9CCCC[C@@H]9N8C(=O)[C@@H](NC(=O)OC)C(C)C)nc7c6)c4)CC5)ccc3[nH]2)C[C@@H]2CCCC[C@@H]21)C(C)C [ODV, Odalasvir]	11500 ng·h/mL
C[C@H](NP(=O)(O)OC[C@@]1(F)O[C@@H](n2ccc(=O)[nH]c2=O)[C@](C)(O)[C@@H]1O)C(=O)O [Compound A-3]	895 ng·h/mL

Reference source: patent US20170087174A1
